Assay: Hematology assays in cynomolgus monkeys (Example 45)
Format: in vivo
Details: day 36; escalating dose regimen
MEASURED ATTRIBUTE: MCHC (g/dL)
Please give a number only; it is taken to be in g/dL.

* ISIS 417002: MOE gapmer, nucleobases 1275 to 1318 of SEQ ID NO: 1 (Table 8) (antisense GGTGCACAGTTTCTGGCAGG; MOE gapmer, wing and gap sizes not given here) | 30

Continue with the next substance.
Ask: Please give the measured MCHC for this substance: ISIS 416850: MOE gapmer, nucleobases 1275 to 1318 of SEQ ID NO: 1 (Table 8) (antisense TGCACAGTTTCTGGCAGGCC; MOE gapmer, wing and gap sizes not given here)
Result: 29
